- assayed-target: human GPBAR1 receptor (Homo sapiens)
- Construct: expressed in transfected cells
- Sequence (Q8TDU6 1-330): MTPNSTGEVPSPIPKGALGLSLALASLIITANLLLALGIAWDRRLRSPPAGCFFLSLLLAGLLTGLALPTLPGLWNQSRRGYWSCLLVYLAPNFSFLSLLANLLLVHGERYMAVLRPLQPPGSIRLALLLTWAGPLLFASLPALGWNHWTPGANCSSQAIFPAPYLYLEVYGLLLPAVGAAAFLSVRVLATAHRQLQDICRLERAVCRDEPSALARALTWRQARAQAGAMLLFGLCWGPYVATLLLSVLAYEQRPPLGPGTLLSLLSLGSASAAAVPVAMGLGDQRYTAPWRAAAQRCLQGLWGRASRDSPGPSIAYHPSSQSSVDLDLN
- assay-details: functional cAMP assay in CHO-dhfr(minus) cells expressing human GPBAR1 receptors
- Format: cell-based
- reported-conditions: human EC50, functional cAMP assay, 30 min at 30° C.
measured-endpoint: EC50 (nM)

[a] Cc1cc(/C(CC(c2ccc(-c3ccc(S(C)(=O)=O)cc3)cc2)c2ccccc2C(F)(F)F)=N/O)ccn1 (centres unmarked)
[b] Cc1ccccc1[C@H](C/C(=N\O)c1cc(Cl)nc(Cl)c1)c1ccc(-c2ccc(C(=O)O)cc2)cc1
Would you kindly point out which of a and b has the smaller EC50 figure? Choose, then provide that item's label. a

[P] Cn1cc(/C(CC(c2ccc(C(=O)NC3COC3)c(F)c2)c2ccccc2Cl)=N/O)ccc1=O (centres unmarked)
[Q] CCn1cc(/C(CC(c2ccc(Br)cc2)c2ccccc2C)=N/O)ccc1=O (centres unmarked)
[R] Cc1cc(C(CC(c2ccc(-c3ccc(F)c(C(=O)O)c3)cc2)c2ccccc2C)=NO)ccn1 (racemic)
rank_up(items): orders items by reported EC50 in ascending numerical order. List labels; respect the requested ordering. Q, R, P
(Q: 4 nM, R: 215 nM, P: 680 nM)

[A] Cc1cc(/C(C[C@H](c2ccc(C3=CC(=O)NCC3)cc2)c2ccccc2C)=N/O)ccn1
[B] O=C(O)c1cccc(C(C/C(=N\O)c2ccncc2)c2ccccc2)c1 (centres unmarked)
Returns: the argument ( A or B ) having the larger EC50. Choose, then provide that item's label. B
(B: 1890 nM, A: 12 nM)

---

- assayed-target: human GPBAR1 receptor (Homo sapiens, UniProt Q8TDU6)
- Construct: expressed in transfected cells
- assay-details: functional cAMP assay in CHO-dhfr(minus) cells expressing human GPBAR1 receptors
- Format: cell-based
- reported-conditions: human EC50, functional cAMP assay, 30 min at 30° C.
measured-endpoint: EC50 (nM)

Solved cases (5 shown):
compound	EC50 (nM)
Cc1cc(/C(C[C@H](c2ccc(-c3nnc(C4CCOCC4)o3)cc2)c2ccccc2C)=N/O)ccn1	30
Cc1ccccc1[C@@H](C/C(=N\O)c1ccc(=O)n(C)c1)c1ccc([C@H]2CC[C@@H](C(=O)O)CC2)cc1	582
Cc1cc(F)ccc1C(C/C(=N\O)c1ccc(=O)n(C)c1)c1ccc(-c2ccc(N)cc2)cc1 (stereo not shown)	50
Cc1cc(/C(C[C@@H](c2ccc(-c3ccc(C(=O)O)c(Cl)c3)cc2)c2ccc(Cl)cc2F)=N/O)ccn1 (single isomer, unassigned)	5
Cc1cc(/C(C[C@H](c2ccc(C3CCN(S(N)(=O)=O)CC3)cc2)c2ccc(Cl)cc2C)=N/O)ccn1	20

[1] CN1CCC(N(C)C(=O)c2ccc(C(C/C(=N\O)c3ccc(=O)n(C)c3)c3ccccc3Cl)cc2F)CC1 (stereo not shown)
[2] Cn1cc(/C(CC(c2ccc(-c3ccc(CC(=O)O)cc3)cc2)c2ccc(Cl)cc2F)=N/O)ccc1=O (single isomer, unassigned) [Example 462]
Would you kindly point out which of 1 and 2 has the smaller EC50 figure? Choose, then provide that item's label. 2

---

- assayed-target: human GPBAR1 receptor (Homo sapiens, UniProt Q8TDU6)
- Construct: expressed in transfected cells
- assay-details: functional cAMP assay in CHO-dhfr(minus) cells expressing human GPBAR1 receptors
- Type: cell-based
- reported-conditions: human EC50, functional cAMP assay, 30 min at 30° C.
measured-endpoint: EC50 (nM)

Solved cases (2 shown):
molecule	quantitative-result
Cc1cc(=O)n(C)cc1/C(CC(c1ccc(Br)cc1)c1ccccc1C)=N\O (stereo not shown) [Example 200]	558
Cc1cc(/C(CC(c2cccc(CC(=O)O)c2)c2ccccc2C)=N/O)ccn1 (stereo not shown) [Example 105]	1020

[a] Cc1ccccc1C(C/C(=N\O)c1cc(C)c(O)c(C)c1)c1ccc(Br)cc1 (stereo not shown) [Example 152]
[b] Cc1ccccc1C(C/C(=N\O)c1ccc(=O)n(C)c1)c1ccc(C(=O)NCC(=O)O)cc1 (stereo not shown) [Example 215]
Would you kindly point out which of a and b has the smaller EC50 figure? Choose, then provide that item's label. b
(b: 810 nM, a: 5120 nM)

---

- assayed-target: human GPBAR1 receptor (Homo sapiens, UniProt Q8TDU6)
- Construct: expressed in transfected cells
- assay-details: functional cAMP assay in CHO-dhfr(minus) cells expressing human GPBAR1 receptors
- Type: cell-based
- reported-conditions: human EC50, functional cAMP assay, 30 min at 30° C.
measured-endpoint: EC50 (µM)

Solved cases (2 shown):
compound	EC50, µM
Cc1cc(/C(CC(c2ccc(Br)cc2)c2ccc(F)cc2C)=N/O)ccn1 (stereo not shown) [Example 140]	0.012
Cc1cc(C(CC(c2cccc(CCCO)c2)c2ccccc2C)=NO)ccn1 (racemic) [Example 107]	0.153

[a] Cc1cc(/C(C[C@H](c2ccc(N3CCC(C(=O)O)CC3)cc2)c2ccc(F)cc2F)=N/O)ccn1 (single isomer, unassigned) [Example 427]
[b] Cc1cc(C(CC(c2ccc(Br)cc2)C(C)(C)C)=NO)ccn1 (racemic) [Example 129]
Returns: the argument ( a or b ) having the larger EC50. Choose, then provide that item's label. b
(b: 0.591 µM, a: 0.004 µM)

---

- assayed-target: human GPBAR1 receptor (Homo sapiens, UniProt Q8TDU6)
- Construct: expressed in transfected cells
- assay-details: functional cAMP assay in CHO-dhfr(minus) cells expressing human GPBAR1 receptors
- Assay type: cell-based
- reported-conditions: human EC50, functional cAMP assay, 30 min at 30° C.
measured-endpoint: EC50 (nM)

[A] Cn1cc(/C(C[C@H](c2ccc(-c3ccc(C(=O)O)c(F)c3)cc2)c2ccc(Cl)cc2F)=N/O)ccc1=O (single isomer, unassigned)
[B] CCOc1ccc([C@@H](C/C(=N\O)c2ccnc(C)c2)c2ccccc2C)cc1
Returns: the argument ( A or B ) having the larger EC50. Choose, then provide that item's label. A
(A: 154 nM, B: 4 nM)

---

- assayed-target: human GPBAR1 receptor (Homo sapiens, UniProt Q8TDU6)
- Construct: expressed in transfected cells
- Sequence (Q8TDU6 1-330): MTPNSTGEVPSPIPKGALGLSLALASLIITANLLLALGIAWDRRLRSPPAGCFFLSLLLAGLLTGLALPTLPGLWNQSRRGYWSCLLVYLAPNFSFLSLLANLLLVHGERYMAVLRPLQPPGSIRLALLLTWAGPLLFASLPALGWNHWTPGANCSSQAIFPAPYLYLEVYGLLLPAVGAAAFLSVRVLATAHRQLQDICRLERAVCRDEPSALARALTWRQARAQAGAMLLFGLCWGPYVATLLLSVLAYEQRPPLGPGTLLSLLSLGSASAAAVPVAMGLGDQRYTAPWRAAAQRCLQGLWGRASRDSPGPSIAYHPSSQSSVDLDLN
- assay-details: functional cAMP assay in CHO-dhfr(minus) cells expressing human GPBAR1 receptors
- Format: cell-based
- reported-conditions: human EC50, functional cAMP assay, 30 min at 30° C.
measured-endpoint: EC50 (nM)

compound	units-label	EC50
Cn1cc(/C(CC(c2ccc(CO)cc2)c2ccc(Cl)cc2F)=N/O)ccc1=O (stereo not shown)	nM	10
Cc1cc(/C(C[C@H](c2ccc(C(=O)N(C)CCO)cc2)c2ccccc2C)=N/O)ccn1	nM	80

[1] COC(=O)c1ccc(-c2cccc(C(CC(=NO)c3ccnc(C)c3)c3ccccc3C)c2)cc1F (racemic)
[2] CN(CCO)C(=O)c1cccc(C(C/C(=N\O)c2ccc(=O)n(C)c2)c2ccc(Cl)cc2F)c1 (stereo not shown)
Returns: the argument ( 1 or 2 ) having the larger EC50. Choose, then provide that item's label. 2

---

- assayed-target: human GPBAR1 receptor (Homo sapiens, UniProt Q8TDU6)
- Construct: expressed in transfected cells
- Sequence (Q8TDU6 1-330): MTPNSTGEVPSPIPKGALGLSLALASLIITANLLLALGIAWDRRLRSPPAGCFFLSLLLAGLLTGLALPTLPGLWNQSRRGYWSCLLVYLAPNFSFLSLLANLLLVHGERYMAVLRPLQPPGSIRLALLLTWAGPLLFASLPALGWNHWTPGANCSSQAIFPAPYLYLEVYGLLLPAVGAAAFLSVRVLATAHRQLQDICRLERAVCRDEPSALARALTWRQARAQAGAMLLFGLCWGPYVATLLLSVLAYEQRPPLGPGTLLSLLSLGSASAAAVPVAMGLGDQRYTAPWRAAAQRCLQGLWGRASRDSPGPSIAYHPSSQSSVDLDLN
- assay-details: functional cAMP assay in CHO-dhfr(minus) cells expressing human GPBAR1 receptors
- Assay type: cell-based
- reported-conditions: human EC50, functional cAMP assay, 30 min at 30° C.
- Procedure: The final clone was verified by DNA sequence analysis. The plasmid was transfected into CHO cells deficient in dihydrofolate reductase activity (CHO-dhfr−) using Lipofectamine plus (Invitrogen). […] The growth medium was exchanged with Krebs Ringer Bicarbonate buffer with 1 mM IBMX and incubated at 30° C. for 30 min. […] The time-resolved energy transfer is measured by a TRF reader (Evotec Technologies GmbH, Hamburg Germany), equipped with a ND:YAG laser as excitation source. […]
measured-endpoint: EC50 (nM)

compound	units-label	quantitative-result
O/N=C(\CC1c2ccccc2CCc2ccccc21)c1ccncc1	nM	810

[1] Cc1cc(/C(C[C@H](c2ccc(-c3nnc(C)o3)cc2)c2ccccc2C)=N/O)ccn1
[2] Cc1cc(/C(C[C@H](c2ccc(N3CCC(C(=O)NCCS(=O)(=O)O)CC3)cc2)c2ccccc2C)=N/O)ccn1
Returns: the argument ( 1 or 2 ) having the larger EC50. Choose, then provide that item's label. 1

[P] Cc1cc(F)ccc1C(C/C(=N\O)c1ccc(=O)n(C)c1)c1ccc(-c2ccc(C(=O)O)cc2)cc1 (stereo not drawn)
[Q] C#Cc1ccc([C@@H](CC(=NO)c2ccnc(C)c2)c2ccccc2C)cc1
[R] Cn1cc(/C(C[C@H](c2ccc(-c3ccc(C(=O)O)s3)cc2)c2ccc(Cl)cc2F)=N/O)ccc1=O
# rank_down: sort by EC50, max first List labels; respect the requested ordering. R, P, Q
(R: 349 nM, P: 49 nM, Q: 2 nM)

[A] Cc1cc(Cl)ccc1C(C/C(=N\O)c1ccc(=O)n(C)c1)c1ccc(Oc2ccc(F)c(C(=O)O)c2)cc1 (stereo not drawn)
[B] Cn1cc(/C(CC(c2ccc(-c3ccc(C(=O)O)cc3)cc2)c2ccc(F)cc2Cl)=N/O)ccc1=O (stereo not drawn)
Returns: the argument ( A or B ) having the larger EC50. Choose, then provide that item's label. A
(A: 71 nM, B: 30 nM)

[a] COC(=O)CNC(=O)c1ccc(-c2ccc(C(C/C(=N\O)c3ccc(=O)n(C)c3)c3ccc(Cl)cc3C)cc2)cc1 (single isomer, unassigned; (+)) [Example 254]
[b] Cc1cc(C(CC(c2ccc(CCCCC(=O)O)cc2)c2ccccc2C)=NO)ccn1 (racemic)
[c] Cc1cc(/C(C[C@@H](c2ccc(-c3ccc(C(=O)O)cc3)cc2)c2ccc(F)cc2C)=N/O)ccn1 (single isomer, unassigned)
[d] COC(=O)c1ccc(-c2ccc(C(CC(=NO)c3ccnc(C)c3)c3ccccc3C)cc2)c(F)c1 (racemic)
# rank_down: sort by EC50, max first List labels; respect the requested ordering. d, a, b, c
(d: 295 nM, a: 60 nM, b: 41 nM, c: 3 nM)

[P] Cc1cc(/C(CC(c2ccc(C(=O)NC3CCCCC3)cc2)c2ccc(F)cc2F)=N/O)ccn1 (stereo not drawn)
[Q] Cc1ccccc1[C@H](C/C(=N\O)c1ccc(=O)n(C)c1)c1ccc(N2CCC(C(=O)O)CC2)cc1
[R] Cc1cc(C(C=C(c2ccccc2)c2ccccc2)=NO)cc(C)n1 (mixture of isomers)
[S] ON=C(CC1c2ccccc2-c2ccccc21)c1ccncc1 (racemic)
[T] Cc1ccccc1C(C/C(=N\O)c1ccc(=O)n(C)c1)c1ccc(C(=O)N2CCOCC2)cc1 (stereo not drawn)
rank_up(items): orders items by reported EC50 in ascending numerical order. List labels; respect the requested ordering. Q, P, R, T, S
(Q: 41 nM, P: 62 nM, R: 300 nM, T: 711 nM, S: 4590 nM)

[a] Cc1cc(/C(C[C@@H](c2ccc(C(=O)N(C)C)cc2)c2ccc(Cl)cc2C)=N/O)ccn1
[b] Cc1cc(Cl)ccc1C(C/C(=N\O)c1ccc(=O)n(C)c1)c1ccc(-c2ccc(C#N)cc2)cc1 (stereo not drawn)
[c] Cc1cc(/C(CC(c2ccc(C(=O)N3CCOCC3)cc2)c2ccc(F)cc2F)=N/O)ccn1 (stereo not drawn)
# rank_down: sort by EC50, max first List labels; respect the requested ordering. b, c, a
(b: 480 nM, c: 132 nM, a: 51 nM)

[a] Cc1cc(C(C[C@@H](c2ccc(-c3ccc(C(=O)N[C@@H](C)C(=O)O)cc3)cc2)c2ccccc2C)=NO)ccn1 (racemic)
[b] Cc1cc(Cl)ccc1[C@H](C/C(=N\O)c1ccnc(CO)c1)c1ccc(Br)cc1
[c] [O-][n+]1ccc(/C(CC(c2ccccc2)c2ccc(Br)cc2)=N/O)cc1 (stereo not drawn)
[d] Cc1cc(/C(C[C@H](c2ccc(N3C[C@@H]4C(C(=O)O)[C@@H]4C3)cc2)c2ccc(F)cc2F)=N/O)ccn1 (single isomer, unassigned)
# rank_down: sort by EC50, max first List labels; respect the requested ordering. b, c, a, d
(b: 327 nM, c: 206 nM, a: 39 nM, d: 2 nM)

[a] Cc1cccnc1C(C/C(=N\O)c1ccncc1)c1ccc(N(C)C)cc1 (stereo not drawn)
[b] Cc1cc(Cl)ccc1C(C/C(=N\O)c1ccc(=O)n(C)c1)c1ccc(OCCCC(=O)O)c(F)c1 (stereo not drawn)
[c] Cc1cc(/C(CC(c2ccc(-c3c[nH]c(=O)[nH]c3=O)cc2)c2ccc(Cl)cc2F)=N/O)ccn1 (stereo not drawn)
# rank_down: sort by EC50, max first List labels; respect the requested ordering. b, a, c
